// values below are reported Tmax
assay: Tmax in ICR mouse at 50 mg/kg, ip; format: ADME, organism-based; conditions: in vivo
Report the value in min with no unit label.

INSERT INTO assay_data (compound_smiles, number) VALUES
  ('C[C@@H]1CN(c2cc(F)c3c(c2)N(C)C(=O)C32CCN(c3nc4c(c(=O)[nH]3)CCCN4C)CC2)C[C@H](C)O1', 60);

Next item in the queue.
CN1CCN(c2cc(F)c3c(c2)N(C)C(=O)C32CCN(c3nc4c(c(=O)[nH]3)CCCN4C)CC2)CC1 has a reported Tmax of 30

* * *

test system: MDR1; assay: Efflux ratio of permeability across basolateral to apical side over apical to basolateral side in MDCK2-MDR1 cells; type: ADME, cell-based, Canis lupus familiaris; settings: dog, MDCK-MDR1
Assay Readout: efflux ratio
Form field (numeric): enter value without unit.

Some solved entries appear below for comparison.
INSERT INTO results (compound_smiles, target_entity, assay_readout, number) VALUES
  ('COc1cc(F)c2c(c1)N(C)C(=O)C21CCN(c2nc3c(c(=O)[nH]2)CCCN3C)CC1', 'MDR1', 'efflux ratio', 2.7),
  ('CN1CCCc2c1nc(N1CCC3(CC1)C(=O)N(C)c1cc(OCCN4CCCCC4)cc(F)c13)[nH]c2=O', 'MDR1', 'efflux ratio', 6.1),
  ('CN1CCCc2c1nc(N1CCC3(CC1)C(=O)N(CS(C)(=O)=O)c1cc(F)cc(F)c13)[nH]c2=O', 'MDR1', 'efflux ratio', 12),
  ('CN1CCCc2c1nc(N1CCC3(CC1)C(=O)N(C)c1cc(OCCN4CCCC4)cc(F)c13)[nH]c2=O', 'MDR1', 'efflux ratio', 21.9);

Turning now to a further record.
# efflux ratio of CN(C)c1cc(F)c2c(c1)N(C)C(=O)C21CCN(c2nc3c(c(=O)[nH]2)CCCN3C)CC1 = 2.7

* * *

Target: Poly [ADP-ribose] polymerase tankyrase-2 (Homo sapiens)
Sequence (Q9H2K2 whole entry): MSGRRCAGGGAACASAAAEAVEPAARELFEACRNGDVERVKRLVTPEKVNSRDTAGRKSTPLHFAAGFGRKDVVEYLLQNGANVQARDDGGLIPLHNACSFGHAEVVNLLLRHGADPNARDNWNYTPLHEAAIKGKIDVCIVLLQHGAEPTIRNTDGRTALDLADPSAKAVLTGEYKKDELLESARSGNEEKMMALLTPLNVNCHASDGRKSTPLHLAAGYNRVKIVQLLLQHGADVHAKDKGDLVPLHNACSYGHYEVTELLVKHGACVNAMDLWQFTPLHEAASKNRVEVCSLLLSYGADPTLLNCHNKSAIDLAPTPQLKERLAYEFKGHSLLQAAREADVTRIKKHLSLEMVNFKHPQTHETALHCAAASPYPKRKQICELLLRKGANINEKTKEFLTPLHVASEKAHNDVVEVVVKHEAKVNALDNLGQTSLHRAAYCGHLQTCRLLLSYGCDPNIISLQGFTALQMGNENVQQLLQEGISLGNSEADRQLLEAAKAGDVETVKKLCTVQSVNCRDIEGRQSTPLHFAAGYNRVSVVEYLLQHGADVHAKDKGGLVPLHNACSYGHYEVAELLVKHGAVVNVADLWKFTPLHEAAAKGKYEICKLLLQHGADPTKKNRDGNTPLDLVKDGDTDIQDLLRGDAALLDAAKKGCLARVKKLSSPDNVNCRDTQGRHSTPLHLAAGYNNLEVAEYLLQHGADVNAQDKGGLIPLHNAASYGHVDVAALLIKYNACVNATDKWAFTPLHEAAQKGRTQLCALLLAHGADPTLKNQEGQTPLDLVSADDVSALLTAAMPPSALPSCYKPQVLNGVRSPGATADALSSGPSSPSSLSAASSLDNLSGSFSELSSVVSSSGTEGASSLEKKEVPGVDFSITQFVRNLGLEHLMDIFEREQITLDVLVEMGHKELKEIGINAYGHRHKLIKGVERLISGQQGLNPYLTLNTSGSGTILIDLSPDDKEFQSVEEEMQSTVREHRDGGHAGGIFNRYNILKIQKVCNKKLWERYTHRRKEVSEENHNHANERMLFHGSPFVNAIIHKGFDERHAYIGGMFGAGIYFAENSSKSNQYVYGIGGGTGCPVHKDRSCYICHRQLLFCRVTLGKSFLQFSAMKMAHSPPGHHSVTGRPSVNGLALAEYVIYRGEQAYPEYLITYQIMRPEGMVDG
Assay: Inhibition of recombinant human N-terminal TEV cleavage site-fused/FLAG-poly his-tagged TNKS2 ARC5-SAM-PARP domain (613 to 1166 residues) expressed in Escherichia coli assessed as reduction in auto-PARylation preincubated for 10 mins followed by biotinylated-NAD+ addition and measured after 45 mins by ELISA
The compounds listed here are annotated with their pIC50.
// pIC50 here means minus log10 of the molar concentration (mol/L)

Here are 3 compounds together with their reported answers.
INSERT INTO measurements (compound_smiles, number) VALUES
  ('CN1CCC(Oc2cc(F)c3c(c2)N(C)C(=O)C32CCN(c3nc4c(c(=O)[nH]3)CCCN4C)CC2)CC1', 7.67),
  ('CN1CCCc2c1nc(N1CCC3(CC1)C(=O)N(CC(F)(F)F)c1cc(F)cc(F)c13)[nH]c2=O', 7.49),
  ('Cc1cccc2c(=O)[nH]c(N3CCC4(CC3)C(=O)N(CCO)c3cc(F)cc(F)c34)nc12', 8.47);

Turning now to a further record.
// field: pIC50; key: CN1CCCc2c1nc(N1CCC3(CC1)C(=O)N(C)c1cc(N4CCNCC4)cc(F)c13)[nH]c2=O ; value = 7.63

* * *

assay: Tmax in ICR mouse at 20 mg/kg, ip; format: ADME, organism-based; conditions: in vivo
Assay Readout: Tmax (h)
Numbers only here, please. The scale is h.

According to the records, this compound C[C@@H]1CN(c2cc(F)c3c(c2)N(C)C(=O)C32CCN(c3nc4c(c(=O)[nH]3)CCCN4C)CC2)C[C@H](C)O1 displays Tmax of 1

* * *

Listed next: entries and their corresponding efflux ratio.
test: Efflux ratio of permeability across basolateral to apical side over apical to basolateral side in MDCK2 cells; assay type: ADME, cell-based, Canis lupus familiaris, MDCK-II; settings: dog, mdck
Respond numerically, and do not add a unit to the figure.

INSERT INTO results (compound_smiles, number) VALUES
  ('CN1CCCc2c1nc(N1CCC3(CC1)C(=O)N(C)c1cc(N4CCCCC4)cc(F)c13)[nH]c2=O', 1),
  ('CN1CCCc2c1nc(N1CCC3(CC1)C(=O)N(CS(C)(=O)=O)c1cc(F)cc(F)c13)[nH]c2=O', 3.3),
  ('CN1CCCc2c1nc(N1CCC3(CC1)C(=O)N(C)c1cc(N4CCNCC4)cc(F)c13)[nH]c2=O', 6.8),
  ('COCCOc1cc(F)c2c(c1)N(C)C(=O)C21CCN(c2nc3c(c(=O)[nH]2)CCCN3C)CC1', 2.1);

The compound CN1CCCc2c1nc(N1CCC3(CC1)C(=O)N(CCO)c1cc(F)cc(F)c13)[nH]c2=O showed efflux ratio equal to 6.4

Lab note: measured efflux ratio of C[C@@H]1CN(c2cc(F)c3c(c2)N(C)C(=O)C32CCN(c3nc4c(c(=O)[nH]3)CCCN4C)CC2)C[C@H](C)N1 was 6.2

* * *

experiment: Protein binding in human plasma assessed as unbound fraction at 1 uM measured after 24 hrs by LC-MS/MS analysis; type: ADME, cell-free
Label rule, in plain words: fraction unbound at 24 h, 1 µM of 0.02 and up is yes, under 0.02 is no.

Some solved entries appear below for comparison.
INSERT INTO measurements (compound_smiles, label_value) VALUES
  ('CN1CCCc2c1nc(N1CCC3(CC1)C(=O)N(CCO)c1cc(F)cc(F)c13)[nH]c2=O', 'yes'),
  ('C[C@@H]1CN(c2cc(F)c3c(c2)N(C)C(=O)C32CCN(c3nc4c(c(=O)[nH]3)CCCN4C)CC2)C[C@H](C)O1', 'no'),
  ('CN1CCCc2c1nc(N1CCC3(CC1)CN(CCO)c1cc(F)cc(F)c13)[nH]c2=O', 'no'),
  ('CS(=O)(=O)c1ccc(-c2nnc(/C=C/c3nnc(-c4ccc(C#N)cc4)o3)n2-c2ccccc2Cl)nc1', 'yes');

Next item in the queue.
// inclusive: fraction unbound at 24 h, 1 µM at least 0.02? input: CN1CCN(c2cc(F)c3c(c2)N(C)C(=O)C32CCN(c3nc4c(c(=O)[nH]3)CCCN4C)CC2)CC1
no

* * *

assay: Stability in mouse liver microsomes assessed as parent compound remaining at 1 uM measured after 30 mins in presence of NADPH by LC-MS/MS analysis; type: ADME, Microsome; conditions: read-out: Stability
Below: a set of entries, each annotated with reported remaining at 0.5 h, 1 µM.
Give a bare numeral; the unit % is implied.

Entry under test: CN1CCN(c2cc(F)c3c(c2)N(C)C(=O)C32CCN(c3nc4c(c(=O)[nH]3)CCCN4C)CC2)CC1 . Its remaining at 0.5 h, 1 µM was 54.9

The molecule listed as CN1CCCc2c1nc(N1CCC3(CC1)C(=O)N(CCO)c1cc(F)cc(F)c13)[nH]c2=O has a reported remaining at 0.5 h, 1 µM of 21.2

Measured remaining at 0.5 h, 1 µM, CN1CCCc2c1nc(N1CCC3(CC1)CN(CCO)c1cc(F)cc(F)c13)[nH]c2=O : 0.3

Record summary for C[C@@H]1CN(c2cc(F)c3c(c2)N(C)C(=O)C32CCN(c3nc4c(c(=O)[nH]3)CCCN4C)CC2)C[C@H](C)O1 : reported remaining at 0.5 h, 1 µM = 49.7
